Attribution: patent US20100210635A1

tested.on: Recombinant human renin (Homo sapiens, UniProt P00797)
Construct: isolate the active form (residues 67-406); made in house; host or cells: FreeStyle 293-F cells (transient expression of pcDNA3.1(+)/hREN)
test.protocol: In vitro enzymatic activity assay of Renin inhibitors (fluorescence, QXL520/HiLyteFluo488 peptide substrate)
Format: biochemical
measurement.conditions: recombinant human renin 3 nM, 1 μM substrate, 37° C., pH 7.4; values given as ranges; read-out: IC50 of Exemplified Compounds Against Renin
Source text: Test compounds in varying concentrations may be reacted with recombinant human renin in the presence of substrate, e.g., QXL520-γ-Abu-Ile-His-Pro-Phe-His-Leu-Val-Ile-His-Thr-Lys (HiLyteFluo488)-Arg-OH (Anaspec, San Jose, Calif.). The reaction can be followed kinetically using fluorescence (excitation λ=485 nm; emission λ=538 nm). Inhibition constants (IC50) may be calculated by non-linear curve fitting of the compound concentrations and fluorescence intensities to the standard IC50 equation. […]
measured.attribute: IC50

Illustrative cases are given below, each with its answer.
>>> print(df.to_string())
                                 smiles_str  measured_attribute  value_observed
0  CC(=O)NCCc1ccccc1Cc1ccccc1CCC(=O)N1CCNC[C@H]1Cc1ccc(O)cc1                IC50        < 0.5 µM
1  O=C(CCC(=O)N1CCNC[C@H]1Cc1ccccc1)c1ccccc1                IC50         > 50 µM
2  CC(=O)Nc1cccc(Oc2ccccc2CCC(=O)N2CCNC[C@H]2Cc2ccccc2)c1                IC50     0.5 to 5 µM

Which IC50 value belongs to O=C(NC1(CC(=O)N2CCNC[C@H]2Cc2ccccc2)CCCCC1)c1ccccc1 ?
5 to 50 µM

Look up IC50 for this molecule: O=C(COc1ccccc1Br)N1CCNC[C@H]1Cc1ccccc1
5 to 50 µM

* * *

tested.on: Recombinant human renin (Homo sapiens)
Construct: isolate the active form (residues 67-406); made in house; host or cells: FreeStyle 293-F cells (transient expression of pcDNA3.1(+)/hREN)
test.protocol: In vitro enzymatic activity assay of Renin inhibitors (fluorescence, QXL520/HiLyteFluo488 peptide substrate)
Assay type: biochemical
measurement.conditions: recombinant human renin 3 nM, 1 μM substrate, 37° C., pH 7.4; values given as ranges; read-out: IC50 of Exemplified Compounds Against Renin
measured.attribute: IC50

In [3]: df
Out[3]:
                                   compound  value_observed
0  CC(=O)NCc1cc(C(F)(F)F)ccc1Oc1cc(C)ccc1CCC(=O)N1CCNC[C@H]1Cc1ccccc1     0.5 to 5 µM
1  CC1(C)CC(C(CC(=O)N2CCNC[C@H]2Cc2ccccc2)c2ccccc2)CCO1 (some centres unmarked)        < 0.5 µM

Given the compound O=C(CCc1ccccc1Cc1ccccc1)N1CCNC[C@H]1Cc1ccccc1 , what is its reported IC50?
< 0.5 µM

Given the compound O=C(CCN(c1ccccc1)c1ccccc1)N1CCNC[C@H]1Cc1ccccc1 , what is its reported IC50?
5 to 50 µM

Consider the compound shown here: O=C(CCCc1ccccc1)N1CCNC[C@H]1Cc1ccccc1 What is its recorded IC50?
5 to 50 µM

* * *

tested.on: Recombinant human renin (Homo sapiens)
Construct: isolate the active form (residues 67-406); made in house; host or cells: FreeStyle 293-F cells (transient expression of pcDNA3.1(+)/hREN)
test.protocol: In vitro enzymatic activity assay of Renin inhibitors (fluorescence, QXL520/HiLyteFluo488 peptide substrate)
Assay type: biochemical
measurement.conditions: recombinant human renin 3 nM, 1 μM substrate, 37° C., pH 7.4; values given as ranges; read-out: IC50 of Exemplified Compounds Against Renin
measured.attribute: IC50

>>> df
                                   compound  value_observed
0  CC(=O)NCCCc1ccccc1Oc1ccccc1CCC(=O)N1CCNC[C@H]1Cc1ccccc1     0.5 to 5 µM
1  CC1(C)CC(CC(=O)N2CCNC[C@H]2Cc2ccccc2)(c2ccccc2)CCO1 (some centres unmarked)     0.5 to 5 µM
2  C[C@@H](CC(=O)N1CCNC[C@H]1Cc1ccccc1)c1ccccc1      5 to 50 µM
3  CC(=O)NCCc1ccccc1Oc1ccccc1CCC(=O)N1CCNC[C@H]1Cc1ccccc1        < 0.5 µM
4  COc1ccc(Oc2ccccc2CCC(=O)N2CCNC[C@H]2Cc2ccccc2)cc1     0.5 to 5 µM

Entry O=C(CCc1nc(-c2ccccc2)c(-c2ccccc2)o1)N1CCNC[C@H]1Cc1ccccc1 : reported IC50 = ?
0.5 to 5 µM

Item under review: O=S(=O)(CC(c1ccccc1)c1ccccc1)N1CCNC[C@H]1Cc1ccccc1 . Reported IC50?
0.5 to 5 µM

Entry under review: O=C(CCc1ccccc1Oc1cccc(CO)c1)N1CCNC[C@H]1Cc1ccccc1 . Reported IC50?
0.5 to 5 µM

# lookup: IC50 of CC(=O)NCCc1ccccc1Cc1ccccc1CCC(=O)N1CCNC[C@H]1Cc1ccccc1
< 0.5 µM

Given CN(C)c1cccc(Oc2ccccc2CCC(=O)N2CCNC[C@H]2Cc2ccccc2)c1 , state its recorded IC50.
< 0.5 µM

* * *

Listed below: IC50 values for each entry.
tested.on: Recombinant human renin (Homo sapiens, UniProt P00797)
Construct: isolate the active form (residues 67-406); made in house; host or cells: FreeStyle 293-F cells (transient expression of pcDNA3.1(+)/hREN)
test.protocol: In vitro enzymatic activity assay of Renin inhibitors (fluorescence, QXL520/HiLyteFluo488 peptide substrate)
Type: biochemical
measurement.conditions: recombinant human renin 3 nM, 1 μM substrate, 37° C., pH 7.4; values given as ranges; read-out: IC50 of Exemplified Compounds Against Renin

Below are worked cases with known answers.
>>> print(df.to_string())
                                 smiles_str    value_observed
0  CC(=O)NCc1cc(C)ccc1Oc1ccc(C)cc1CCC(=O)N1CCNC[C@H]1Cc1ccccc1          < 500 nM
1  O=C(COc1cccc2ccccc12)N1CCNC[C@H]1Cc1ccccc1  5000 to 50000 nM
2  O=S(=O)(CCc1ccccc1)N1CCNC[C@H]1Cc1ccccc1  5000 to 50000 nM

Entry N#CCCc1ccccc1Oc1ccccc1CCC(=O)N1CCNC[C@H]1Cc1ccccc1 : reported IC50 = ?
< 500 nM

Which IC50 is listed for CC(=O)NCCc1ccccc1Cc1ccccc1CCC(=O)N1CCNC[C@H]1Cc1ccc(OCC(N)=O)cc1 ?
< 500 nM

* * *

tested.on: Recombinant human renin (Homo sapiens, UniProt P00797)
Construct: isolate the active form (residues 67-406); made in house; host or cells: FreeStyle 293-F cells (transient expression of pcDNA3.1(+)/hREN)
test.protocol: In vitro enzymatic activity assay of Renin inhibitors (fluorescence, QXL520/HiLyteFluo488 peptide substrate)
Type: biochemical
measurement.conditions: recombinant human renin 3 nM, 1 μM substrate, 37° C., pH 7.4; values given as ranges; read-out: IC50 of Exemplified Compounds Against Renin
molecules and their reported IC50

>>> df
                                 smiles_str  value_observed
0  CC(=O)NCc1cc(C(F)(F)F)ccc1Oc1ccc(C)cc1CCC(=O)N1CCNC[C@H]1Cc1ccccc1  500 to 5000 nM
1  O=C(O)CCc1ccccc1Oc1ccccc1CCC(=O)N1CCNC[C@H]1Cc1ccccc1  500 to 5000 nM
2  COC(=O)CCc1ccccc1Oc1ccccc1CCC(=O)N1CCNC[C@H]1Cc1ccccc1        < 500 nM

Find IC50 (Recombinant human renin (Homo sapiens, UniProt P00797)) for the entry O=C(O)COc1ccc(C[C@@H]2CNCCN2C(=O)CCc2ccccc2Oc2ccccc2)cc1
500 to 5000 nM

Look up IC50 with Recombinant human renin (Homo sapiens, UniProt P00797) for this molecule: O=C(CSC(c1ccccc1)c1ccccc1)N1CCNC[C@H]1Cc1ccccc1
500 to 5000 nM

Any idea what IC50 came out for NC(=O)c1cccc(Oc2ccccc2CCC(=O)N2CCNC[C@H]2Cc2ccccc2)c1 on Recombinant human renin (Homo sapiens, UniProt P00797)?
500 to 5000 nM

Form entry - test system: Recombinant human renin (Homo sapiens, UniProt P00797); read-out: IC50; molecule: O=C(CCc1ccccc1Oc1ccc(Cl)cc1)N1CCNC[C@H]1Cc1ccccc1
< 500 nM

Hi! What's the reported IC50 for COc1ccccc1-c1ccccc1CC(=O)N1CCNC[C@H]1Cc1ccccc1 on Recombinant human renin (Homo sapiens, UniProt P00797)?
5000 to 50000 nM

* * *

tested.on: Recombinant human renin (Homo sapiens, UniProt P00797)
Construct: isolate the active form (residues 67-406); made in house; host or cells: FreeStyle 293-F cells (transient expression of pcDNA3.1(+)/hREN)
Sequence (P00797 67-406): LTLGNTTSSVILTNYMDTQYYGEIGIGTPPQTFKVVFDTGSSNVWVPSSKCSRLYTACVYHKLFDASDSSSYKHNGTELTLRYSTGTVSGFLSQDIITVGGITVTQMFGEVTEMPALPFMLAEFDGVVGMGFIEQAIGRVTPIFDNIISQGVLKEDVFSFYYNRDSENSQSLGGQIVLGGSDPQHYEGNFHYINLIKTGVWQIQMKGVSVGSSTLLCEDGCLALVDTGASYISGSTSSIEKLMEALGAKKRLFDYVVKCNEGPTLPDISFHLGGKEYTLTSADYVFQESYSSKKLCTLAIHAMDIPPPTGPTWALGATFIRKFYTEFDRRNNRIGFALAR
test.protocol: In vitro enzymatic activity assay of Renin inhibitors (fluorescence, QXL520/HiLyteFluo488 peptide substrate)
Type: biochemical
measurement.conditions: recombinant human renin 3 nM, 1 μM substrate, 37° C., pH 7.4; values given as ranges; read-out: IC50 of Exemplified Compounds Against Renin
IC50 values, listed per item

>>> df
                                   compound  measured_attribute  value_observed
0  CN(C)C(=O)COc1ccc(C[C@@H]2CNCCN2C(=O)CCc2ccccc2Oc2ccccc2)cc1                IC50  500 to 5000 nM
1  NC(=O)COc1ccc(C[C@@H]2CNCCN2C(=O)CCc2ccccc2Oc2ccccc2)cc1                IC50        < 500 nM
2  COCCCOc1ccccc1CCC(=O)N1CCNC[C@H]1Cc1ccccc1                IC50  500 to 5000 nM

What IC50 value was documented for this compound, O=C(CCc1ccccc1Oc1ccccc1)N1CCNC[C@H]1Cc1ccc(OCc2nnn[nH]2)cc1 ?
< 500 nM

Give its IC50 value. Item: O=C(CCc1ccccc1Oc1ccccc1)N1CCNC[C@H]1Cc1ccccc1
< 500 nM

So what does the record say about IC50 for CC(=O)NCc1cccnc1Oc1ccccc1CCC(=O)N1CCNC[C@H]1Cc1ccccc1 ?
500 to 5000 nM

Bench note: what IC50 did O=C(CCc1nc2ccccc2oc1=O)N1CCNC[C@H]1Cc1ccccc1 show?
5000 to 50000 nM
